Target: Sialidase (Clostridium perfringens)
Sequence (P10481 whole entry): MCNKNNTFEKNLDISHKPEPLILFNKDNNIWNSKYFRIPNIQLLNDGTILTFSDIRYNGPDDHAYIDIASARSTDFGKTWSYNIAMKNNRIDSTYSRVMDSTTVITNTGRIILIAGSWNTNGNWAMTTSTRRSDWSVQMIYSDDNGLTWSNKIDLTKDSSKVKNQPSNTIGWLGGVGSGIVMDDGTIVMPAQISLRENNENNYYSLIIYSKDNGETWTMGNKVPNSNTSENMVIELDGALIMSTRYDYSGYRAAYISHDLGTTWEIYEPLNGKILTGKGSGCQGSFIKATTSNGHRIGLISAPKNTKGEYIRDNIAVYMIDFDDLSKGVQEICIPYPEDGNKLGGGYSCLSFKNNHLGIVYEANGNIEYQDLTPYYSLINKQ
Test: Competitive inhibition of Clostridium perfringens neuraminidase by Lineweaver-Burke plot and Dixon plot
Could you please mark Y for values of Ki below 100 nM and N for values at or above it?

compound="C=CC(C)(C)c1c(O)cc2oc3c(CC=C(C)C)c(O)c(O)cc3c(=O)c2c1O [CUDRAXANTHONE L]" cat=N
compound=C=CC(C)(C)c1c(O)cc2oc3cc(O)c(O)c(CC=C(C)C)c3c(=O)c2c1O cat=Y
compound="C=CC(C)(C)c1c(O)cc(O)c2c(=O)c3c(CC=C(C)C)c(O)c(O)cc3oc12 [CUDRATRICUSXANTHONE A]" cat=N
